The reported numbers originate from the supplement of paper PMC10567573.

B1: IQUB (parent)
chain: KIREKEEWIKLDYHRRHNPKTNED

# Variants of: B1
# Experimental protocol: protein stability index of a GFP-peptide fusion (GPS, HEK-293T) (PSI 1-6); higher = more stable;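 also: lentivirally expressed fusions sorted by FACS into six bins by GFP to DsRed ratio, PSI derived from sequencing read proportions per bin multiplied by bin number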
# Assay context: c terminus: a fixed tail appended
Value kind: protein stability index

Variant designation | Value kind | Data value
N22Y | protein stability index | 4.01
N22A | protein stability index | 4.27
K1W | protein stability index | 3.75
L11V | protein stability index | 4.55
K10P | protein stability index | 5.26
W8I | protein stability index | 4.24
T21C | protein stability index | 4.57
L11C | protein stability index | 4.52
I9E | protein stability index | 5.25
W8K | protein stability index | 5.19
K10S | protein stability index | 4.68
K1Y | protein stability index | 2.98
R16Y | protein stability index | 4.31
H14S | protein stability index | 4.61
H14A | protein stability index | 4.8
E6V | protein stability index | 3.63
Y13P | protein stability index | 4.51
N22M | protein stability index | 4.29
H17P | protein stability index | 5.17
E7C | protein stability index | 4.61
E6R | protein stability index | 4.66
R15D | protein stability index | 5.33
